Tested on: healthy CD34+ donor cells
Test: CellTiter-Glo cell survival assay, healthy CD34+ donor cells
Format: cell-based, human
Conditions: Homo sapiens, 72 h, sample HEALTHY#2; 3 d expansion then 3 d treatment; combinations: Tal 2–2.5 nM or APE1i 50 nM added; read-out: IC50
recorded endpoint: IC50 (nM)

structure string	data value
Cn1ncnc1[C@H]1c2n[nH]c(=O)c3cc(F)cc(c23)N[C@@H]1c1ccc(F)cc1	28

###

Tested on: CD34+ MDS/CMML cells
Assay: CellTiter-Glo cell survival assay, primary CD34+ MDS/CMML cells
Assay type: cell-based, human
Details: Homo sapiens, 72 h, sample MDS#4 (MDS-EB-1); 3 d expansion then 3 d treatment; combinations: Tal 2–2.5 nM or APE1i 50 nM added; read-out: IC50

compound	IC50 / nM
Cn1ncnc1[C@H]1c2n[nH]c(=O)c3cc(F)cc(c23)N[C@@H]1c1ccc(F)cc1 [Tal, talazoparib]	31

###

Test system: CD34+ or CD34− AML cells
Assay: CellTiter-Glo cell survival assay, primary CD34+ or CD34− AML cells
Type: cell-based
Conditions: Homo sapiens, 72 h, sample AML#16 (sAML); 3 d expansion then 3 d treatment; combinations: Tal 2–2.5 nM or APE1i 50 nM added; read-out: IC50

structure string	IC50 (µM)
Cn1ncnc1[C@H]1c2n[nH]c(=O)c3cc(F)cc(c23)N[C@@H]1c1ccc(F)cc1	0.019

###

Reported values of IC50 for individual entries
Tested on: CD34+ MDS/CMML cells
Test: CellTiter-Glo cell survival assay, primary CD34+ MDS/CMML cells
Format: cell-based, human
Details: Homo sapiens, 72 h, sample MDS#2 (MDS-MLD); 3 d expansion then 3 d treatment; combinations: Tal 2–2.5 nM or APE1i 50 nM added; read-out: IC50
Experimental: The cytotoxic efficacy of talazoparib and APE1 inhibitor III was analyzed after 3 d of initial expansion followed by 3 d of treatment in CD34+ MDS/CMML cells (n = 8; 4 MDS and 4 CMML samples) and in CD34+ or CD34− AML cells (n = 18) in comparison to healthy CD34+ donor cells (n = 8) (Table 1, Figure 1). […]

structure string	study system	IC50 (nM)
Cn1ncnc1[C@H]1c2n[nH]c(=O)c3cc(F)cc(c23)N[C@@H]1c1ccc(F)cc1	CD34+ MDS/CMML cells	6
Nc1ncn([C@H]2C[C@H](O)[C@@H](CO)O2)c(=O)n1	CD34+ MDS/CMML cells	9

###

System: healthy CD34+ donor cells
Experiment: CellTiter-Glo cell survival assay, healthy CD34+ donor cells
Assay type: cell-based, human
Conditions: Homo sapiens, 72 h, mean of the 8 healthy donor cell samples; 3 d expansion then 3 d treatment; read-out: mean IC50 (± standard error of mean)
pIC50: −log10 of the molar value.

structure string	study system	pIC50
Cn1ncnc1[C@H]1c2n[nH]c(=O)c3cc(F)cc(c23)N[C@@H]1c1ccc(F)cc1	healthy CD34+ donor cells	7.80

###

Test system: healthy CD34+ donor cells
Assay: CellTiter-Glo cell survival assay, healthy CD34+ donor cells
Type: cell-based, human
Details: Homo sapiens, 72 h, sample HEALTHY#4; 3 d expansion then 3 d treatment; combinations: Tal 2–2.5 nM or APE1i 50 nM added; read-out: IC50
recorded endpoint: IC50

structure string	study system	recorded endpoint	data value
Cn1ncnc1[C@H]1c2n[nH]c(=O)c3cc(F)cc(c23)N[C@@H]1c1ccc(F)cc1	healthy CD34+ donor cells	IC50	10 nM

Each recorded value in this set is attributed to paper PMC6826540.
